Experiment: IRE1-XBP1 UPR arm activators, confirmation, cell-based, CHO-XBP1 luciferase reporter, luminescence, single concentration (AID 485299)
Details: at 20 µM, active compounds read high
Among all 1,000 compounds or so, about 630 (63%) were called active. The set was probably picked from earlier hits. These entries were drawn from the full list.
Class Condition met: activation at least 50%. Class Condition not met: activation below 50%.

Input line: Threshold query (activation >= 50%) on `CCCc1nc2c(c(=O)c3ccccc3n2C)c(=O)n1C1CCCCCC1`
Output line: Condition met

Input line: Another compound to look at: `O=C(Nc1ccc2nc3n(c(=O)c2c1)CCCCC3)c1ccccc1Cl`
Output line: Condition not met

Input line: Ok, now CCOC(=O)c1c(NC(=O)CNC2CCCc3ccccc32)sc(C(N)=O)c1C (configuration not stated)
Output line: Condition not met

Input line: Next record, please: `CCCc1ccc(OCc2ccc(C(=O)N/N=C/c3cccc([N+](=O)[O-])c3)o2)c(OC)c1`
Output line: Condition not met

Input line: What do you get for `N#CCC(=O)N/N=C/c1cn(Cc2ccc3ccccc3c2)c2ccccc12` ?
Output line: Condition met

Input line: One more compound: `O=C(COC(=O)/C=C/c1cn(-c2ccccc2)nc1-c1cccnc1)Nc1ccc(Cl)cc1Cl`
Output line: Condition met

Input line: What do we get for `Cc1cc(NC(=O)CSc2nc3cc(Cl)ccc3c(=O)n2Cc2ccco2)no1` ?
Output line: Condition met

Input line: Ok, now `N#Cc1ccccc1NC(=O)COc1c(Br)cc(Br)c2cccnc12`
Output line: Condition met

Input line: Follow-up item: `CN(C)CCCN(C(=O)c1ccc(S(=O)(=O)N2CCCCCC2)cc1)c1nc2ccc(Br)cc2s1`
Output line: Condition met

Input line: Likewise for `CCCc1nc2ccccc2c(=O)n1/N=C/c1ccc(O)c(O)c1` ?
Output line: Condition not met

Input line: Queued: `Cc1cccc(Nc2nc3c(S(=O)(=O)c4ccccc4)nnn3c3ccccc23)c1C`
Output line: Condition met

Input line: Moving on to OC(CNCC1CCCO1)Cn1c2ccc(Br)cc2c2cc(Br)ccc21 (configuration not stated)
Output line: Condition not met

Input line: Now this one: `CCOC(=O)N1CCN(C(=O)c2nn(-c3ccc(C)cc3)c(=O)c3c2c2ccccc2n3C)CC1`
Output line: Condition not met

Input line: Follow-up item: `O=C(C[C@H]1C/C=C\C[C@@H](NC(=O)OCC2c3ccccc3-c3ccccc32)C(=O)O[C@@H](c2ccccc2)CNC1=O)N[C@H](CO)Cc1ccccc1`
Output line: Condition met

Input line: Continue with `CC(=O)Nc1ccccc1Sc1ccc2c3c(cccc13)C(=O)N(c1ccc(C)cc1)C2=O`
Output line: Condition met

Input line: One more compound: `OCCNc1nc(Nc2ccc(Cl)c(Cl)c2)nc2ccccc12`
Output line: Condition not met

Input line: Field entry: `Cc1ccc(S/C(=N\S(=O)(=O)c2ccc(Cl)cc2)c2ccccc2)cc1`
Output line: Condition not met

Input line: What would you report for `Cc1ccc(SC(=O)COc2ccc(C)c(C)c2)cc1` ?
Output line: Condition not met

Input line: Follow-up item: `CCOc1ccc(S(=O)(=O)Nc2cccc(C(=O)NCC3(N4CCCCC4)CCCCC3)c2)cc1`
Output line: Condition met

Input line: Then what about the compound `Cc1ccc(S(=O)(=O)N(CC(=O)N/N=C/c2ccc(F)cc2)c2cccc3cccnc23)cc1` ?
Output line: Condition met

Input line: Repeat for the following compound: `CCc1nn(-c2cc(Oc3cccc4ccccc34)nc(-c3ccccc3)n2)c(N)c1C#N`
Output line: Condition met

This collection of values is drawn from PubChem BioAssay AID485299.
